target.of.assay: Pro-neuregulin-1, membrane-bound isoform (Homo sapiens) (UniProt Q02297)
Sequence (Q02297 whole entry, looked up, canonical isoform): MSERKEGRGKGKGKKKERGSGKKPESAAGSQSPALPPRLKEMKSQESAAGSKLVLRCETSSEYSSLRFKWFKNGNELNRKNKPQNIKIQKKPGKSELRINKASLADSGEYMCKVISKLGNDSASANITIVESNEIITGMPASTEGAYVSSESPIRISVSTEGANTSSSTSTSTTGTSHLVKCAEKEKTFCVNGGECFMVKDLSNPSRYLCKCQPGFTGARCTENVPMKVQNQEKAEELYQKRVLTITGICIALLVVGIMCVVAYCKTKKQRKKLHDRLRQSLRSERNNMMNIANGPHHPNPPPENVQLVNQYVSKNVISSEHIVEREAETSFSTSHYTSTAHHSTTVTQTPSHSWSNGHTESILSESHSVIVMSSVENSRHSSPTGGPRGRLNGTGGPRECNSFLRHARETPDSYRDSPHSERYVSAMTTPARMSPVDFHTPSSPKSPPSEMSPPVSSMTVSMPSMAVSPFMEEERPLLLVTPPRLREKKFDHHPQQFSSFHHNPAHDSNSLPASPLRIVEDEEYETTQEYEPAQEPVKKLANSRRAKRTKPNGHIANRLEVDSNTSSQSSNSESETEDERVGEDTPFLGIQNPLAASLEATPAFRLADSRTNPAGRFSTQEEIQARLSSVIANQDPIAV
assay.comment: NRG1 binders on small-molecule microarrays, primary screen, psychiatric disease protein project, biochemical, small-molecule microarray, fluorescence 635/667 (AID 1075);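 also: score combines 667 nm spot fluorescence with signal to noise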
test.settings: NRG1 binding, 635 nm fluorescence, higher = more signal
metric: composite z-score

compound	metric	measured
COc1ccc([Si](C)(C)[C@@H]2[C@@H](CC(=O)N(CCO)Cc3ccccc3)O[C@]3(C(=O)N(c4ccccc4)c4ccccc43)[C@H]2C)cc1	composite z-score	0.954
O=C1O[C@@H](c2ccccc2)[C@@H](c2ccccc2)N2[C@@H](c3ccc(O)cc3)[C@]3(C(=O)Nc4ccc(C#CC5=CCCCC5)cc43)[C@@H](C(=O)NC[C@H](O)c3ccccc3)[C@H]12	composite z-score	1.2
C=CC[C@]1(C(=O)O)COC(c2ccc(OCCCO)cc2)=N1	composite z-score	1.79
COCCOC(=O)N1C(=O)[C@@]2(c3cc(C#CC4=CCCCC4)ccc31)[C@H](c1ccc(O)cc1)N1[C@H](c3ccccc3)[C@H](c3ccccc3)OC(=O)[C@H]1[C@@H]2C(=O)N1CCN(c2ncccn2)CC1	composite z-score	0.576
CC(c1ccccc1)C(O)C1C=CC2C(=O)N(c3ccccc3)C(=O)C2N1Nc1ccc([N+](=O)[O-])cc1 (stereo unspecified)	composite z-score	1.58
C=CCC(OC(C)=O)[C@@H]1[C@@H](N(Cc2cccc3ccccc23)C(=O)Cc2ccc(F)cc2)c2cc(OCCCO)ccc2N1C(=O)c1ccc2ccccc2n1 (stereo partly specified)	composite z-score	0.0429
